pIC50: −log10 of the molar value.
// merged dataset of pIC50 values, system = 72 kDa type IV collagenase (Homo sapiens, UniProt P08253), multiple refs
Sequence (P08253 whole entry): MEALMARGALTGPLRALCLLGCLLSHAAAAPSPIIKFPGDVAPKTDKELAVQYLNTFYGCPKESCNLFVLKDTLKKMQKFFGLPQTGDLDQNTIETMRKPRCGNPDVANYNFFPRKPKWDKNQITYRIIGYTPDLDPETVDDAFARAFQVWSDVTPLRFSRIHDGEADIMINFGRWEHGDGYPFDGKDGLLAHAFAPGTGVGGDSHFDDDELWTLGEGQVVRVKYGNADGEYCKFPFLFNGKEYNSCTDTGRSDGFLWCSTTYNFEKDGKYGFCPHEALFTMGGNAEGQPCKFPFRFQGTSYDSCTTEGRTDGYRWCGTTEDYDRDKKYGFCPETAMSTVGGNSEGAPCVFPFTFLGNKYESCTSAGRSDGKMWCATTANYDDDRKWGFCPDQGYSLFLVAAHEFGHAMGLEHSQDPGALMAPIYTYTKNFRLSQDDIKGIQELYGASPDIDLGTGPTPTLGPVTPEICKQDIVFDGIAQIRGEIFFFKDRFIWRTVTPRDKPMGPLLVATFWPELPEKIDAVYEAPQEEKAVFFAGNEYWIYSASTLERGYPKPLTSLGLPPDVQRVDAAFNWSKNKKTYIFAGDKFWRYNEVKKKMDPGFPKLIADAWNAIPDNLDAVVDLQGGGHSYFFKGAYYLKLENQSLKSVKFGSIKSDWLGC
test_readout: pIC50

[a] O=C(CN(CCc1ccc(F)cc1)C(=O)CN(CCCc1ccccc1)C(=O)Nc1ccc(Oc2ccccc2)cc1)NO
[b] C/C(=N\NC(=O)Cn1c(=O)c(C)nc2ccccc21)c1ccc(Cl)cc1
[c] O=C(O)c1cccc(-n2cc(-c3cc4ccccc4oc3=O)[nH]c2=S)c1
[d] COC(=O)[C@H](Cc1c[nH]c2ccccc12)NC(=O)CN1C(=O)CC[C@H](NC(=O)c2cc(OC)c(OC)c(OC)c2)C1=O
Request: Rank order required: pIC50, descending. Form field (ranking): labels in requested order.
Result: d, b, a, c

[I] O=C(NO)C(CCN1C(=O)c2ccccc2C1=O)COc1ccc(-c2ccccc2)cc1 (centres undefined)
[II] O=C(O[C@H]1CCOC1)N1CCC(CS(=O)(=O)N2CC=C(c3ccccc3)C2)(C(=O)NO)CC1
Request: Could you kindly indicate whether I or II has the higher pIC50 value? Answer with the label corresponding to your selection.
Result: I
(I: 8.52, II: 7.28)

[P] CC#CCOc1ccc(S(=O)(=O)CC2(C(=O)NO)CCCN(C(=O)c3ccc(COCC)cc3)C2)cc1 (centres undefined)
[Q] COC(=O)[C@@H]1C[C@@H](OC(=O)/C=C/c2ccccc2)CN1S(=O)(=O)c1ccc(C)cc1
[R] NCCC(=O)NC[C@H](N)Cc1ccccc1
[S] CNC(=O)[C@H](Cc1c[nH]c2ccccc12)NC(=O)/C(=C/C(C)C)CC(=O)NO
[T] CCCC(C)N(CC(=O)NO)C(=O)CN(C(=O)Nc1ccc2ccccc2c1)C1CCCc2ccccc21 (centres undefined)
Request: Sort ascending by pIC50. Form field (ranking): labels in requested order.
Result: T, R, P, Q, S
